test: protease stability score; higher = more stable; yeast display proteolysis, trypsin and chymotrypsin;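 further: log10 excess protease needed over predicted unfolded state with 0 meaning unfolded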
# protease stability score >= 0.5 gives 1, anything below gives -1

Task: Reported protease stability score at or above 0.5? "DEEATKNAERLMRALNTNNEDEVLEMVDKNATMQYGDKTYHGREEISQAVDERRKEMRVHLRRVTVNAQGDKLDIKANMEVDHNGRPIKVNLRIEAKAHNGRITDIKIETDPELTRQRRT"
Result: 1

Task: // inclusive: protease stability score at least 0.5? input: "DEEEQQKVADKIVEVLKSGNPDEMMKLADENVRAQVGDKTYHGREELKKWMKEVRDRVDRIRVETWEVHNGTVNIIVRMDVDGQTLTLTITANIHNGRIKQIVIEYRDDDELRKAQK"
Result: 1

Task: Is the recorded value of protease stability score equal to or greater than 0.5 for this sequence? "DEENREVMERFVQAFNRNNPDQLNTNADPNAKFVIGDKTINGRERMKKWQEEQNTHMRQHLEVTSISVHGNSITARVRMQFQVNGQPQEVDLTLHATIHNGQIKQLTFNLDKDEKKQIDK"
Result: -1

Task: API: above_or_equal(metric=protease stability score, cutoff=0.5) for item "DESAAERFDEFMRNVDTNNEHKLKEYADPNAKVQYGDKVLHGMDQIIHDIRRYMEEMRVRVDFKRYDAQGNELSFVADYSAEYNGEPVNDNVTFHVEAHNGKLKDMKINFDPKKDQDRRG"
Result: -1

Task: Record "DEDRTRRMLEKVFEYVVKGDVDHVRKHGKPNVRYEYADKKKEGEEVYKLIVKIVKKVGAEAKRREQEVKGDTMRANFQYNKGDKTVQTTAEAQYEGDKADKLRAELTDEVKKVVHQG" ; criterion: protease stability score no lower than 0.5. Met?
Result: -1

Task: Dear colleague, could you confirm whether "DEENLKKVREFLEHLVTGNEREVKHLMDPNAEMEVGDKKYSGTEQLRRLMQELKRHQTNKYDIKDMKVQGNKADLKAKVIERHNGQPDDTEQQFFATMSNGRFKKVSFRTDK" has protease stability score at or above 0.5?
Result: -1

Task: API: above_or_equal(metric=protease stability score, cutoff=0.5) for item "DDSEIRTLAKQLAHVIETGDHEHFRKMAPPDVRARIGETEYHGREQVAEALKQERRTADHVQVEDVKASGNNVTLIITQKENGRRDRFKMVFEFHNGKVKFVSQEKQ"
Result: -1

Task: Does protease stability score meet or surpass 0.5 for "EKEVVELAERFIDALQTNNPDQAEENVDENVKFQYGDKSIKGRDTWNRELKKTLRDQRIQFRHVEIRSDGDKAHITAEFQVTHNGQPDKRRYKMTVEVRNGTIQRVTVQQHR" ?
Result: -1

Task: In plain terms: is recorded protease stability score at least 0.5 for "EEEAVRRYERMLRLVQNNNTEELNKQLDPNVEYDYGNHEIHGREQAVREMLKLQRKMRIEIQFDRVRHEGDKAVVKYTVLFDINGRPITNSATLYVKFKNGKIVYASAQMPEDFQRKVSS" ?
Result: 1

Task: Determine whether measured protease stability score meets or exceeds 0.5 for "DEDARSNFQELLKALQTGDERLFEKNVDPNVTFRYGDKTLTGRHHIMEQLRRDKENSRQDFDVKEWHFHGNRIDVKAQLRFEKNGKPDTVDVNLVAIAHNGRIQEIQIDVQK"
Result: -1

Task: Check the entry "DEEEVERIAKKLWKIMETGDEDEARKMVPPDVQARVGDKHISGREQYAKWVREVVKRVDSFRIKSLDAKGDKVNIVFVVHHNGKVEQHHATLVFHNGKLVYRTVKTG" : does protease stability score equal or exceed 0.5?
Result: -1

Task: Record "DDRDIERMAKDYVRAIRTGDEEQIRRLMDKDVKYEIGDKTIHGRENWAKWVKNFRRHADHVRLKDMRVHGNKIDLNMEFQVNGEKKRQKYDIQVHNGRIKTVRIEDS" ; criterion: protease stability score no lower than 0.5. Met?
Result: 1

Task: Could you tell me if the measured protease stability score of "DERVKRLVEQWFRAIEHGDPDQERKYFDPNARVEIGDRELNGREEIAHDLKRRHDEMHLHLKSVTIRVEGDHAEVNVRFQQDHNGKPEQKVQHVVLHFRGDYVRKMEVRDTK" reaches 0.5 or more?
Result: 1

Task: Decide: protease stability score of "DEHARKQFEDLIRALSTGDPERVAQLVDPNAHFQVGDQTIHGREHLMEDVKRRRDKMRMELHVDHVKVDENHLDAIIRVVQDTNGDPDHKKYRLVAQWQNGRVNNQEMQETS" >= 0.5?
Result: 1

Task: Please indicate if the recorded protease stability score for "DEEENNKIARRAAKAFSTGDPDEFHKLVDPNARVRIGEKEVHGREDVHRMVQELRERADHIQVTSFTFQGNKITLDLSLDVNGHTVKLNVEITIHNGHVVDINIDPEQVKSLHG" meets or exceeds 0.5.
Result: 1

Task: Is protease stability score at least 0.5? Consider "DEDLERIIRRFMTALETGDPEELKKQMDENVRVQVGDKVLNGREEAAKHWTKVRDDLRIKIDTFHVENNGNRIDLSVDAEAEHNGRPQRYTLHMKAQVHNGKIKNATFTREQ"
Result: 1

Task: Determine whether measured protease stability score meets or exceeds 0.5 for "DETNERVARTMLEVRQHNNPDDLRKMLDPNVKVVIGDKEVHGREDYINKFEERVKHIRVDVKVDHIDSQGNRLDIDVTFTMNVNGQPVKDRMRFVIQITNGKIEEVDVSVPEEELKKQEK"
Result: 1

Task: Decide: is the reported value of protease stability score for "DHEAQKALRDVIEAIRENNPDEVKKQLDKNATVRVGDKRLHGTEEQRREVQKKLDEIRIRYQDIKMETSGDTVRASIQFVENHNGEPQRDRVTASMSADNGRVKHFVVTETQ" equal to or greater than 0.5?
Result: -1

Task: Could you please find out whether "DEQVQKQFKEAMRNREKGDKDKVVENFDKHVKVSVGDRTYHGMDDIARRQNEHMKEIRVEYRDVKMSVDNGKIVIHVRQQLEDNGEPREFSYTAEANATNGRIKSYRVDMDPEQVREVDR" has protease stability score that meets 0.5 or exceeds it?
Result: -1

Task: Tell me whether protease stability score is at least 0.5 here: "DQDHLRELVHTFNRLLEQGNFDELANMFDKNARVDVGDKSYHGQEQVRTWFKHLRQRVDHFHVKHYKVRGDEATIHVIMDVNGQKRNVTVRLSFSNGRADHIQIDPDHKQELDK"
Result: 1

Task: Quick check: does "DEEKEATKQVSEWIENMKSGDEDRLRELADKNAKVRYGDEEVHGMDQAAERWRNQRQKYDSLEVEVRDLKNHNGQVVVDQVERFNHNGKTDQRRVIITMERRPNHFVVQEVVQP" have protease stability score greater than or equal to 0.5?
Result: -1

Task: Record "DQHDAERMNRVFEQNNEEELHQLMDPNVEVTVGNKRVKGRERAKKLFKRLVTNIDHVSYRSVNDDGDKLELKFVAVINGQTYHLKIEVTLHNGKVKSIHLDARDEKLKHLLDEWLH" ; criterion: protease stability score no lower than 0.5. Met?
Result: 1
